Kass (SV method II), BSA by entry:
subjectOfTest: BSA (Bos taurus, UniProt P02769)
assay: BSA fluorescence quenching titration
Format: binding, bovine
conditions: BSA

| compoundStructureString | Kass (SV method II), BSA / M⁻¹ |
| --- | --- |
| Oc1ccccc1N=Cc1ccc(N2CCOCC2)cc1 | 10620 |
| [Co+2].[O-]c1ccccc1N=Cc1ccc(N2CCOCC2)cc1.[O-]c1ccccc1N=Cc1ccc(N2CCOCC2)cc1.c1ccc(-c2ccccn2)nc1 | 54550 |
| [Ni+2].[O-]c1ccccc1N=Cc1ccc(N2CCOCC2)cc1.[O-]c1ccccc1N=Cc1ccc(N2CCOCC2)cc1.c1ccc(-c2ccccn2)nc1 | 52920 |
| [Mn+2].[O-]c1ccccc1N=Cc1ccc(N2CCOCC2)cc1.[O-]c1ccccc1N=Cc1ccc(N2CCOCC2)cc1.c1ccc(-c2ccccn2)nc1 | 20050 |

* * *

assay: Nitric oxide scavenging assay
Assay type: biochemical
conditions: 200 µM, 546 nm
parameterMeasured: % Inhibition, nitric oxide (%)

| compound | endpointResult |
| --- | --- |
| [Mn+2].[O-]c1ccccc1N=Cc1ccc(N2CCOCC2)cc1.[O-]c1ccccc1N=Cc1ccc(N2CCOCC2)cc1.c1ccc(-c2ccccn2)nc1 [(1)] | 44.75 |
| O=C1O[C@H]([C@@H](O)CO)C(O)=C1O [Ascorbic acid, ascorbic acid, reference compound] | 63.72 |
| Oc1ccccc1N=Cc1ccc(N2CCOCC2)cc1 [(HL), 2-(4-morpholinobenzylideneamino)phenol] | 40.53 |
| [Ni+2].[O-]c1ccccc1N=Cc1ccc(N2CCOCC2)cc1.[O-]c1ccccc1N=Cc1ccc(N2CCOCC2)cc1.c1ccc(-c2ccccn2)nc1 [(3)] | 45.60 |
| [Co+2].[O-]c1ccccc1N=Cc1ccc(N2CCOCC2)cc1.[O-]c1ccccc1N=Cc1ccc(N2CCOCC2)cc1.c1ccc(-c2ccccn2)nc1 [(2)] | 46.06 |

* * *

Test system: Candida albicans
assay: Agar disc diffusion, strain I
Format: cell-based
Design: concentration or dose not given beside the values
Inhibition% by entry:

| molecule | subjectOfTest | unitSymbol | Inhibition% |
| --- | --- | --- | --- |
| Oc1ccccc1N=Cc1ccc(N2CCOCC2)cc1 | Candida albicans | % | 40 |
| [Ni+2].[O-]c1ccccc1N=Cc1ccc(N2CCOCC2)cc1.[O-]c1ccccc1N=Cc1ccc(N2CCOCC2)cc1.c1ccc(-c2ccccn2)nc1 | Candida albicans | % | 63 |
| [Co+2].[O-]c1ccccc1N=Cc1ccc(N2CCOCC2)cc1.[O-]c1ccccc1N=Cc1ccc(N2CCOCC2)cc1.c1ccc(-c2ccccn2)nc1 | Candida albicans | % | 50 |
| [Mn+2].[O-]c1ccccc1N=Cc1ccc(N2CCOCC2)cc1.[O-]c1ccccc1N=Cc1ccc(N2CCOCC2)cc1.c1ccc(-c2ccccn2)nc1 | Candida albicans | % | 57 |
| CC(=O)N1CCN(c2ccc(OCC3COC(Cn4ccnc4)(c4ccc(Cl)cc4Cl)O3)cc2)CC1 (stereo not drawn) [Ketoconazole, ketoconazole, reference compound] | Candida albicans | % | 67 |
| C[C@@H]1[C@H](O)[C@@H](C)/C=C/C=C/C=C/C=C/C=C/C=C/C=C/[C@H](O[C@@H]2O[C@H](C)[C@@H](O)[C@H](N)[C@@H]2O)C[C@@H]2O[C@](O)(C[C@@H](O)C[C@@H](O)[C@H](O)CC[C@@H](O)C[C@@H](O)CC(=O)O[C@H]1C)C[C@H](O)[C@H]2C(=O)O [Amphotericin B, amphotericin B, reference compound] | Candida albicans | % | 65 |

* * *

assay: Hydroxyl radical scavenging assay
Type: biochemical
conditions: 80 µM, 230 nm
Label y when % Inhibition, hydroxyl radical is at or above 20%; anything below gets n.

| compound | classLabel |
| --- | --- |
| [Ni+2].[O-]c1ccccc1N=Cc1ccc(N2CCOCC2)cc1.[O-]c1ccccc1N=Cc1ccc(N2CCOCC2)cc1.c1ccc(-c2ccccn2)nc1 | n |
| [Mn+2].[O-]c1ccccc1N=Cc1ccc(N2CCOCC2)cc1.[O-]c1ccccc1N=Cc1ccc(N2CCOCC2)cc1.c1ccc(-c2ccccn2)nc1 | n |
| O=C1O[C@H]([C@@H](O)CO)C(O)=C1O [Ascorbic acid, ascorbic acid, reference compound] | y |
| [Co+2].[O-]c1ccccc1N=Cc1ccc(N2CCOCC2)cc1.[O-]c1ccccc1N=Cc1ccc(N2CCOCC2)cc1.c1ccc(-c2ccccn2)nc1 | n |
| Oc1ccccc1N=Cc1ccc(N2CCOCC2)cc1 | n |

* * *

assay: Shake flask n-octanol/deionized water partition (lipophilicity)
Type: physicochemical
conditions: pH 7.11; n-octanol/deionised water, shake flask

| compoundStructureString | logP at 24 h |
| --- | --- |
| Oc1ccccc1N=Cc1ccc(N2CCOCC2)cc1 | 1.09 |

* * *

assay: Superoxide scavenging assay
conditions: 200 µM, 590 nm
Label MET when % Inhibition, superoxide is at or above 50%; anything below gets NOT MET.

| compound | classLabel |
| --- | --- |
| [Co+2].[O-]c1ccccc1N=Cc1ccc(N2CCOCC2)cc1.[O-]c1ccccc1N=Cc1ccc(N2CCOCC2)cc1.c1ccc(-c2ccccn2)nc1 [(2)] | MET |
| Oc1ccccc1N=Cc1ccc(N2CCOCC2)cc1 [(HL), 2-(4-morpholinobenzylideneamino)phenol] | NOT MET |
| [Mn+2].[O-]c1ccccc1N=Cc1ccc(N2CCOCC2)cc1.[O-]c1ccccc1N=Cc1ccc(N2CCOCC2)cc1.c1ccc(-c2ccccn2)nc1 [(1)] | NOT MET |
| O=C1O[C@H]([C@@H](O)CO)C(O)=C1O [Ascorbic acid, ascorbic acid, reference compound] | MET |

* * *

Kb, method I, red by entry:
Test system: CT-DNA
assay: DNA binding by cyclic voltammetry
conditions: reduction

| compoundStructureString | Kb, method I, red [M⁻¹] |
| --- | --- |
| [Ni+2].[O-]c1ccccc1N=Cc1ccc(N2CCOCC2)cc1.[O-]c1ccccc1N=Cc1ccc(N2CCOCC2)cc1.c1ccc(-c2ccccn2)nc1 | 9156 |
| Oc1ccccc1N=Cc1ccc(N2CCOCC2)cc1 | 3809 |
| [Mn+2].[O-]c1ccccc1N=Cc1ccc(N2CCOCC2)cc1.[O-]c1ccccc1N=Cc1ccc(N2CCOCC2)cc1.c1ccc(-c2ccccn2)nc1 | 7890 |
| [Co+2].[O-]c1ccccc1N=Cc1ccc(N2CCOCC2)cc1.[O-]c1ccccc1N=Cc1ccc(N2CCOCC2)cc1.c1ccc(-c2ccccn2)nc1 | 11330 |

* * *

Binding constant Kapp by BH method (Kb, BSA) by entry:
subjectOfTest: BSA (Bos taurus, UniProt P02769)
Assay type: binding, bovine
conditions: 25 °C
parameterMeasured: Binding constant Kapp by BH method (Kb, BSA)

| compoundStructureString | endpointResult |
| --- | --- |
| [Mn+2].[O-]c1ccccc1N=Cc1ccc(N2CCOCC2)cc1.[O-]c1ccccc1N=Cc1ccc(N2CCOCC2)cc1.c1ccc(-c2ccccn2)nc1 | 12429 M⁻¹ |
| [Co+2].[O-]c1ccccc1N=Cc1ccc(N2CCOCC2)cc1.[O-]c1ccccc1N=Cc1ccc(N2CCOCC2)cc1.c1ccc(-c2ccccn2)nc1 | 30937 M⁻¹ |
| [Ni+2].[O-]c1ccccc1N=Cc1ccc(N2CCOCC2)cc1.[O-]c1ccccc1N=Cc1ccc(N2CCOCC2)cc1.c1ccc(-c2ccccn2)nc1 | 18374 M⁻¹ |
| Oc1ccccc1N=Cc1ccc(N2CCOCC2)cc1 | 7556 M⁻¹ |

* * *

assay: DPPH radical scavenging assay
Type: biochemical
conditions: 80 µM, 517 nm
parameterMeasured: % Inhibition, DPPH (%)

| compound | parameterMeasured | endpointResult |
| --- | --- | --- |
| [Co+2].[O-]c1ccccc1N=Cc1ccc(N2CCOCC2)cc1.[O-]c1ccccc1N=Cc1ccc(N2CCOCC2)cc1.c1ccc(-c2ccccn2)nc1 | % Inhibition, DPPH | 26.76 |
| O=C1O[C@H]([C@@H](O)CO)C(O)=C1O [Ascorbic acid, ascorbic acid, reference compound] | % Inhibition, DPPH | 53.74 |
| [Ni+2].[O-]c1ccccc1N=Cc1ccc(N2CCOCC2)cc1.[O-]c1ccccc1N=Cc1ccc(N2CCOCC2)cc1.c1ccc(-c2ccccn2)nc1 | % Inhibition, DPPH | 24.74 |
| Oc1ccccc1N=Cc1ccc(N2CCOCC2)cc1 | % Inhibition, DPPH | 15.21 |
| [Mn+2].[O-]c1ccccc1N=Cc1ccc(N2CCOCC2)cc1.[O-]c1ccccc1N=Cc1ccc(N2CCOCC2)cc1.c1ccc(-c2ccccn2)nc1 | % Inhibition, DPPH | 18.62 |

* * *

Test system: EB–DNA
assay: EB–DNA competitive fluorescence emission titration
Format: binding
conditions: EB–DNA

| compoundStructureString | subjectOfTest | KSV (SV method I), DNA, M⁻¹ |
| --- | --- | --- |
| [Mn+2].[O-]c1ccccc1N=Cc1ccc(N2CCOCC2)cc1.[O-]c1ccccc1N=Cc1ccc(N2CCOCC2)cc1.c1ccc(-c2ccccn2)nc1 | EB–DNA | 16755 |
| [Co+2].[O-]c1ccccc1N=Cc1ccc(N2CCOCC2)cc1.[O-]c1ccccc1N=Cc1ccc(N2CCOCC2)cc1.c1ccc(-c2ccccn2)nc1 | EB–DNA | 28863 |
| [Ni+2].[O-]c1ccccc1N=Cc1ccc(N2CCOCC2)cc1.[O-]c1ccccc1N=Cc1ccc(N2CCOCC2)cc1.c1ccc(-c2ccccn2)nc1 | EB–DNA | 16879 |
| Oc1ccccc1N=Cc1ccc(N2CCOCC2)cc1 | EB–DNA | 11636 |
